Molecular target: T1, human CXCL1 protein (human, UniProt P09341 35-107)
T1 sequence: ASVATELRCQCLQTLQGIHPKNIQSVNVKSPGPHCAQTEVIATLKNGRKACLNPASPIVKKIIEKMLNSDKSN
Test: cell-based or functional assay
# HuCXCL1 neutralizing activity EC50 (nM), Ca^2+ Flux assay per record follows
Readout Type: HuCXCL1 neutralizing activity EC50 (nM), Ca^2+ Flux assay

Binder	Unit Of Measure	Value
5A-5E11 (antibody, V domains shown) VH: QVQLQQSGAELVRPGSSVKISCKASGYAFSDYWMNWVKQRPGQGLEWIGQIYPGDGDTNYNGKFKGKGTLTADKSSSTAYMQLNSLTSEDSAVYFCARERDYDVAMDYWGQGTSVTVSS VL: DIQMTQSPSSLSASLGGKVTITCKASQDINKYIAWFQHKPGKGPRLVIHYTSILQPGIPSRFSGVGSGRDYSFSIRNLEPEDIATYYCLQYDNLPWTFGGGTKLEIK	nM	3.96
028-8-12 (antibody, V domains shown, Unmodified human antibody obtained by the human ADLib technique; also called ADLib#028-08-12; ADLib #028-8-12) VH: EVQLLESGGGLVQPGGSLRLSCAASGFTFSELSMSWVRQAPGKGLEWVSAISGSGGSTYYADSVKGRFTISRDNSKNTLYLQMNSLRAEDTAVYYCAREGGRLEPYYYYYAMDVWGQGTPVTVSS VL: DIQMTQSPSSLSASVGDRVTITCRASQSISDNLHWYQQKPGKAPKLLIYDASNLESGVPSRFSGSGSGTDFTLTINSLQPEDFATYYCQQYYSTPLTFGQGTKLEIK	nM	5.73
1A-7H10 (antibody, V domains shown) VH: QVQLKESGPVLVAPSQSLSITCSVSGFSSTTYGVHWVRQPPGQGLEWLGVIWAGGSTNYNSALMSRLSISKDNSKSQVFLKMNSLQTDDTAMYYCATQYHYPFAYWGQGTLVTVSA VL: NIVMTQSPKSMSMSVGERVTLSCKASENVGIYVSWYQQKPEQSPKLMIYGASNRNTGVPDRFTGSGSATDFTLTISSVQAEDLADYYCGQSYSYPLTFGAGTKLELK	nM	6.24
4A-2F7 (antibody, V domains shown) VH: QVTLKESGPGILKPSQTLSLTCSFSGFSLSTSGMGVDWIRQPSGKGLEWLAHIWWDDDKYYNPSLKSQLTISKDTSRNQVFLKITSVDTADTATYYCARSYGYDMDYYAMDYWGQGTSVTVSS VL: DIQMTQSPSSLSASLGERVSLTCRASQEISGYLSWLQQKPDGTIKRLIYAASTLDSGVPKRFSGSRSGSDYSLTISSLESEDFADYYCLQYASYPPWTFGGGTKLEIK	nM	4.8
